Assay: Dose-finding pilot study: steady-state plasma concentration of memantine
Format: in vivo, male C57BL/6J mice
Details: male, C57BL/6J, mouse, 30 mg/kg/day oral (drinking water), mean±SEM, read-out: steady-state plasma level
MEASURED_PARAMETER: concentration at 4 weeks (nM)
Report only the number, with the unit nM understood.

QUERY: So what does the record say about concentration at 4 weeks for CC12CC3CC(C)(C1)CC(N)(C3)C2 [memantine, 1-amino-3,5-dimethyl adamantane] ?
RESULT: 1140

====

Experiment: Dose-finding pilot study: steady-state plasma concentration of memantine
Format: in vivo, male C57BL/6J mice
Settings: male, C57BL/6J, mouse, 100 mg/kg/day oral (drinking water), mean±SEM, read-out: steady-state plasma level
Description: Transgenic mice expressing either human PS1 harboring the familial AD-linked A246E mutation or chimeric mouse/human APP695 harboring a human Aβ domain and mutations (K595N, M596L) linked to Swedish familial AD pedigrees (APPswe) (Borchelt et al., 1997) were back-crossed to C57BL/6J for 16 generations and then crossed together to generate double transgenic mice co-expressing both transgenes. […]
MEASURED_PARAMETER: concentration at 4 weeks (µM)
Return type: number; implicit unit µM.

QUERY: Consider the compound shown here: CC12CC3CC(C)(C1)CC(N)(C3)C2 [memantine, 1-amino-3,5-dimethyl adamantane] What is its recorded concentration at 4 weeks?
RESULT: 5.54

Origin of the recorded values: patent US20050113458A1
